Organism: Mus musculus
Assay: in vitro inhibition of electrically evoked contractions of MVD (Mouse vas deferens)
Assay type: functional
Provide the recorded pIC50 for the entries that follow.
Scale note: pIC50 = -log10(concentration in M).

// returns reported pIC50 for input NC(=O)[C@H](Cc1ccccc1)NC(=O)[C@H](Cc1ccccc1)NC(=O)[C@@H]1CCCN1C(=O)[C@@H](N)Cc1ccc(O)cc1 [ENDOMORPHIN 2]
7.82

Consider next the molecule CC(C)C[C@H](NC(=O)[C@H](Cc1ccccc1)NC(=O)CNC(=O)CNC(=O)[C@@H](N)Cc1ccc(O)cc1)C(N)=O [[LEU5]ENKEPHALIN] in the same way.
7.94

Record: NC(=O)[C@@H]1CCCN1C(=O)C(Cc1ccccc1)NC(=O)[C@H]1CCCN1C(=O)[C@@H](N)Cc1ccc(O)cc1 (stereo in doubt)
6.23

====

For each entry below, report its Ki value.
Molecular target: Delta-type opioid receptor (Rattus norvegicus)
Sequence (P33533 whole entry): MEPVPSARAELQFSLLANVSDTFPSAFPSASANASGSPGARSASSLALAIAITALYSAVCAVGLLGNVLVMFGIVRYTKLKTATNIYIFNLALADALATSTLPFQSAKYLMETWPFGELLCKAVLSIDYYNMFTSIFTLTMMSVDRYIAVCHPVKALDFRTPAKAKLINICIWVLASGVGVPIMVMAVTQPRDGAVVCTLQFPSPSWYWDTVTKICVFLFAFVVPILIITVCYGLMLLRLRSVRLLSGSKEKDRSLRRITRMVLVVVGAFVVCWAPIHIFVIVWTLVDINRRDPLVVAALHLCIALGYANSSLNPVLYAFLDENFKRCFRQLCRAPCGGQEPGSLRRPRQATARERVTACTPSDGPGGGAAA
Test: Binding affinity towards delta receptor in rat brain using [3H]DSLET

Form field: Ki recorded for NC(=O)[C@@H]1CCCN1C(=O)[C@@H](Cc1ccccc1)NC(=O)[C@@H]1CSCN1C(=O)[C@@H](N)Cc1ccc(O)cc1 with Delta-type opioid receptor (Rattus norvegicus) (enter value)
2.45 µM

And what about the molecule CC1(C)SC[C@@H](C(=O)N[C@@H](Cc2ccccc2)C(=O)N[C@@H](Cc2ccccc2)C(N)=O)N1C(=O)[C@@H](N)Cc1ccc(O)cc1 ?
> 10 µM

// next record NC(=O)[C@@H]1CCCN1C(=O)C(Cc1ccccc1)NC(=O)[C@H]1CCCN1C(=O)[C@@H](N)Cc1ccc(O)cc1 (stereo in doubt)
> 10 µM

// repeat for NC(=O)[C@H](Cc1ccccc1)NC(=O)[C@H](Cc1ccccc1)NC(=O)[C@@H]1COCN1C(=O)[C@@H](N)Cc1ccc(O)cc1 and report
> 4 µM

CC1(C)OC[C@@H](C(=O)N[C@H](Cc2ccccc2)C(=O)N2CCC[C@H]2C(N)=O)N1C(=O)[C@@H](N)Cc1ccc(O)cc1 ?
> 10 µM

Try this molecule next: CC1(C)OC[C@@H](C(=O)N[C@@H](Cc2ccccc2)C(=O)N[C@@H](Cc2ccccc2)C(N)=O)N1C(=O)[C@@H](N)Cc1ccc(O)cc1
> 10 µM

Try this molecule next: NC(=O)[C@H](Cc1ccccc1)NC(=O)[C@H](Cc1ccccc1)NC(=O)[C@@H]1CSCN1C(=O)[C@@H](N)Cc1ccc(O)cc1
1.98 µM

Follow-up entry: CC1(C)SC[C@@H](C(=O)N[C@H](Cc2ccccc2)C(=O)N2CCC[C@H]2C(N)=O)N1C(=O)[C@@H](N)Cc1ccc(O)cc1
> 10 µM

Continue with NC(=O)[C@@H]1CCCN1C(=O)[C@@H](Cc1ccccc1)NC(=O)[C@@H]1COCN1C(=O)[C@@H](N)Cc1ccc(O)cc1
> 10 µM

====

Experiment: Ratio of inhibition of electrically evoked contractions of mouse vas deferens and inhibition of electrically evoked contractions of guinea pig ileum; IC50 ratio
Type: functional
Property measured: Ratio
Form rule: numeric answer, no unit written next to it.

Which Ratio value belongs to CC1(C)OC[C@@H](C(=O)N[C@@H](Cc2ccccc2)C(=O)N[C@@H](Cc2ccccc2)C(N)=O)N1C(=O)[C@@H](N)Cc1ccc(O)cc1 ?
1.99

Please answer likewise for NC(=O)[C@H](Cc1ccccc1)NC(=O)[C@H](Cc1ccccc1)NC(=O)[C@@H]1COCN1C(=O)[C@@H](N)Cc1ccc(O)cc1
3.62

Repeat with NC(=O)[C@H](Cc1ccccc1)NC(=O)[C@H](Cc1ccccc1)NC(=O)[C@@H]1CSCN1C(=O)[C@@H](N)Cc1ccc(O)cc1
6.22

For CC1(C)OC[C@@H](C(=O)N[C@H](Cc2ccccc2)C(=O)N2CCC[C@H]2C(N)=O)N1C(=O)[C@@H](N)Cc1ccc(O)cc1 then?
2.17

# iterate: NC(=O)[C@@H]1CCCN1C(=O)[C@@H](Cc1ccccc1)NC(=O)[C@@H]1CSCN1C(=O)[C@@H](N)Cc1ccc(O)cc1
5.45

Reference source: ChEMBL document CHEMBL1134681
